Give inhibition at 10 µM for every item shown.
Test system: TK-10
Experiment: NCI SRB growth inhibition (single dose 10 µM / five-dose)
Type: cell-based, human
Conditions: Homo sapiens; TK-10 (Renal cancer), 10 µM; read-out: GI%

Which measured inhibition at 10 µM value corresponds to COc1cccc(C=NNC(=O)c2ccc3[nH]c(-c4ccc(Cl)cc4)nc3c2)c1O ?
> 100%

Another compound to look at: COc1ccc(-c2nc3cc(C(=O)NN=Cc4cccc(O)c4)ccc3[nH]2)cc1
< 5%

Another compound to look at: O=C(NN=Cc1ccccc1O)c1ccc2[nH]c(-c3ccc(Cl)cc3)nc2c1
95%

Another compound to look at: O=C(NN=Cc1cccc(O)c1)c1ccc2[nH]c(-c3ccc(Cl)cc3)nc2c1
< 5%

Another compound to look at: COc1cccc(C=NNC(=O)c2ccc3[nH]c(-c4ccccc4)nc3c2)c1
< 5%

Another compound to look at: O=C(NN=Cc1cccc(O)c1)c1ccc2[nH]c(-c3ccccc3)nc2c1
< 5%

Another compound to look at: COc1cccc(C=NNC(=O)c2ccc3[nH]c(-c4ccc(Cl)cc4)nc3c2)c1
> 100%

Another compound to look at: COc1ccc(-c2nc3cc(C(=O)NN=Cc4cc(OC)ccc4OC)ccc3[nH]2)cc1
< 5%

Another compound to look at: COc1ccc(-c2nc3cc(C(=O)NN=Cc4cccc(OC)c4)ccc3[nH]2)cc1
> 100%

Another compound to look at: COc1ccc(OC)c(C=NNC(=O)c2ccc3[nH]c(-c4ccc(Cl)cc4)nc3c2)c1
10.9%

Another compound to look at: COc1ccc(C=NNC(=O)c2ccc3[nH]c(-c4ccc(Cl)cc4)nc3c2)cc1O
< 5%

Another compound to look at: COc1cccc(C=NNC(=O)c2ccc3[nH]c(-c4ccccc4)nc3c2)c1O
50.6%

Another compound to look at: COc1ccc(-c2nc3cc(C(=O)NN=Cc4cccc(OC)c4O)ccc3[nH]2)cc1
40%

Another compound to look at: COc1cc(C=NNC(=O)c2ccc3[nH]c(-c4ccccc4)nc3c2)cc(OC)c1OC
6.66%

Another compound to look at: COc1cc(C=NNC(=O)c2ccc3[nH]c(-c4ccc(Cl)cc4)nc3c2)cc(OC)c1OC
62.6%

Another compound to look at: COc1ccc(-c2nc3cc(C(=O)NN=Cc4ccccc4O)ccc3[nH]2)cc1
> 100%

Another compound to look at: COc1ccc(-c2nc3cc(C(=O)NN=Cc4cc(OC)c(OC)c(OC)c4)ccc3[nH]2)cc1
< 5%

Another compound to look at: COc1ccc(OC)c(C=NNC(=O)c2ccc3[nH]c(-c4ccccc4)nc3c2)c1
19%

Another compound to look at: COc1ccc(-c2nc3cc(C(=O)NN=Cc4ccc(OC)c(O)c4)ccc3[nH]2)cc1
< 5%

Another compound to look at: COc1ccc(C=NNC(=O)c2ccc3[nH]c(-c4ccccc4)nc3c2)cc1O
< 5%

---

Give GI50 for every item shown.
Test system: SF-539
Test: NCI SRB growth inhibition (single dose 10 µM / five-dose)
Format: cell-based, human
Details: Homo sapiens; SF-539, CNS cancer; five-dose
Express the result in µM but write the number alone.

Which measured GI50 value corresponds to COc1cccc(C=NNC(=O)c2ccc3[nH]c(-c4ccccc4)nc3c2)c1O ?
1.31

Another compound to look at: COc1cccc(C=NNC(=O)c2ccc3[nH]c(-c4ccc(Cl)cc4)nc3c2)c1O
1.07

Another compound to look at: COc1ccc(-c2nc3cc(C(=O)NN=Cc4cccc(OC)c4)ccc3[nH]2)cc1
11.5

---

Give inhibition at 10 µM for every item shown.
Test system: OVCAR-4
Test: NCI SRB growth inhibition (single dose 10 µM / five-dose)
Format: cell-based, human
Conditions: Homo sapiens; OVCAR-4 (Ovarian cancer), 10 µM; read-out: GI%
Express the result in % but write the number alone.

Provide value of inhibition at 10 µM for this record tested with OVCAR-4: COc1cc(C=NNC(=O)c2ccc3[nH]c(-c4ccccc4)nc3c2)cc(OC)c1OC
21.9

Another molecule to look at: COc1ccc(C=NNC(=O)c2ccc3[nH]c(-c4ccc(Cl)cc4)nc3c2)cc1O
20.8

Another molecule to look at: COc1ccc(OC)c(C=NNC(=O)c2ccc3[nH]c(-c4ccccc4)nc3c2)c1
37.8

Another molecule to look at: O=C(NN=Cc1cccc(O)c1)c1ccc2[nH]c(-c3ccc(Cl)cc3)nc2c1
15.7

Another molecule to look at: COc1cccc(C=NNC(=O)c2ccc3[nH]c(-c4ccccc4)nc3c2)c1
20.1

Another molecule to look at: COc1ccc(-c2nc3cc(C(=O)NN=Cc4cc(OC)ccc4OC)ccc3[nH]2)cc1
8.31

Another molecule to look at: COc1ccc(OC)c(C=NNC(=O)c2ccc3[nH]c(-c4ccc(Cl)cc4)nc3c2)c1
38.9

Another molecule to look at: COc1ccc(-c2nc3cc(C(=O)NN=Cc4cccc(OC)c4O)ccc3[nH]2)cc1
86

---

Tested on: RXF 393
Assay: NCI SRB growth inhibition (single dose 10 µM / five-dose)
Type: cell-based, human
Conditions: Homo sapiens; RXF 393 (Renal cancer), 10 µM; read-out: GI%
Give inhibition at 10 µM for every item shown.

Which measured inhibition at 10 µM value corresponds to O=C(NN=Cc1ccccc1O)c1ccc2[nH]c(-c3ccc(Cl)cc3)nc2c1 [8o] ?
> 100%

Another compound to look at: COc1ccc(C=NNC(=O)c2ccc3[nH]c(-c4ccc(Cl)cc4)nc3c2)cc1O [8s]
69.1%

Another compound to look at: COc1cc(C=NNC(=O)c2ccc3[nH]c(-c4ccccc4)nc3c2)cc(OC)c1OC [8g]
30.8%

Another compound to look at: COc1ccc(-c2nc3cc(C(=O)NN=Cc4cccc(OC)c4O)ccc3[nH]2)cc1 [8k]
> 100%

Another compound to look at: COc1ccc(-c2nc3cc(C(=O)NN=Cc4ccc(OC)c(O)c4)ccc3[nH]2)cc1 [8l]
37.2%

Another compound to look at: COc1ccc(C=NNC(=O)c2ccc3[nH]c(-c4ccccc4)nc3c2)cc1O [8e]
< 5%

Another compound to look at: O=C(NN=Cc1cccc(O)c1)c1ccc2[nH]c(-c3ccccc3)nc2c1 [8b]
< 5%

Another compound to look at: COc1cc(C=NNC(=O)c2ccc3[nH]c(-c4ccc(Cl)cc4)nc3c2)cc(OC)c1OC [8u]
> 100%

Another compound to look at: COc1ccc(-c2nc3cc(C(=O)NN=Cc4cc(OC)c(OC)c(OC)c4)ccc3[nH]2)cc1 [8n]
20.1%

---

Tested on: SF-268
Assay: NCI SRB growth inhibition (single dose 10 µM / five-dose)
Assay type: cell-based, human
Conditions: Homo sapiens; SF-268 (CNS cancer), 10 µM; read-out: GI%
Method: Screening of cytotoxic activity against a panel of sixty human tumor cell lines The selected compounds by NCI were evaluated for their anticancer activity in a two- stage process. […] Using the seven absorbance measurements [time zero, (Tz), control growth, (C), and test growth in the presence of drug at the five concentration levels (Ti)], the percentage growth is calculated at each of the drug concentrations levels. […] Three dose response parameters are calculated for each experimental agent. […]
MEASURED ATTRIBUTE: inhibition at 10 µM (%)
Express the result in % but write the number alone.

Provide value of inhibition at 10 µM for this record tested with SF-268: COc1ccc(-c2nc3cc(C(=O)NN=Cc4cccc(O)c4)ccc3[nH]2)cc1
37.4

Another compound to look at: COc1ccc(-c2nc3cc(C(=O)NN=Cc4cc(OC)ccc4OC)ccc3[nH]2)cc1
9.02

Another compound to look at: COc1ccc(OC)c(C=NNC(=O)c2ccc3[nH]c(-c4ccccc4)nc3c2)c1
36.6

Another compound to look at: O=C(NN=Cc1cccc(O)c1)c1ccc2[nH]c(-c3ccc(Cl)cc3)nc2c1
24.2

---

Test system: OVCAR-5
Experiment: NCI SRB growth inhibition (single dose 10 µM / five-dose)
Format: cell-based, human
Conditions: Homo sapiens; OVCAR-5, Ovarian cancer; five-dose
MEASURED ATTRIBUTE: GI50

Provide value of GI50 for this record tested with OVCAR-5: COc1cccc(C=NNC(=O)c2ccc3[nH]c(-c4ccc(Cl)cc4)nc3c2)c1O [8r]
2.17 µM

Another compound to look at: COc1cccc(C=NNC(=O)c2ccc3[nH]c(-c4ccc(Cl)cc4)nc3c2)c1 [8q]
5.35 µM

Another compound to look at: COc1ccc(-c2nc3cc(C(=O)NN=Cc4ccccc4O)ccc3[nH]2)cc1 [8h]
6.55 µM

Another compound to look at: COc1cc(C=NNC(=O)c2ccc3[nH]c(-c4ccc(Cl)cc4)nc3c2)cc(OC)c1OC [8u]
15.6 µM

Another compound to look at: COc1ccc(-c2nc3cc(C(=O)NN=Cc4cccc(OC)c4O)ccc3[nH]2)cc1 [8k]
7.72 µM

Another compound to look at: COc1cccc(C=NNC(=O)c2ccc3[nH]c(-c4ccccc4)nc3c2)c1O [8d]
2.77 µM

Another compound to look at: COc1ccc(-c2nc3cc(C(=O)NN=Cc4cccc(OC)c4)ccc3[nH]2)cc1 [8j]
4.69 µM

Another compound to look at: O=C(NN=Cc1ccccc1O)c1ccc2[nH]c(-c3ccc(Cl)cc3)nc2c1 [8o]
2.12 µM
